Cited source: patent US20220296595A1

- TARGET DESC: CDK4/CyclinD1 (Homo sapiens, UniProt P11802)
- Construct: purchased Thermofisher PR8064A
- Sequence (P11802 whole entry): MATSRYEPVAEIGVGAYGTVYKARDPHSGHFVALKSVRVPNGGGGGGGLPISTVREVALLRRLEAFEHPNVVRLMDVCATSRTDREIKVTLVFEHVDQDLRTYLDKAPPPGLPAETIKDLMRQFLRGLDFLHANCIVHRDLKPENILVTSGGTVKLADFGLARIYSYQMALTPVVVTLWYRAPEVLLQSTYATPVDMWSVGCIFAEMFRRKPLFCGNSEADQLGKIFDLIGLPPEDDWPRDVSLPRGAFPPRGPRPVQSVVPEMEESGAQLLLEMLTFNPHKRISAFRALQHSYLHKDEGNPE
- Sequence (P24385 whole entry partner): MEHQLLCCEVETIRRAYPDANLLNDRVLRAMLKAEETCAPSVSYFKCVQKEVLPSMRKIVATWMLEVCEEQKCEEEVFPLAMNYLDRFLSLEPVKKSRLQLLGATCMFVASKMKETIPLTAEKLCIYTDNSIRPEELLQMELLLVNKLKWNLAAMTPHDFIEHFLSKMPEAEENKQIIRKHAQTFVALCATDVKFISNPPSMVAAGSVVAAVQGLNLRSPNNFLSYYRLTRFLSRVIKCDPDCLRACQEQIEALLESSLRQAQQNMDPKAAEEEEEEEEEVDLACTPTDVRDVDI
- PROCEDURE TEXT: Assay for inhibition of CDK4/CyclinD1 (Caliper microfluidic kinase assay)
- Type: biochemical
- SETUP CONDITIONS: CDK4/CyclinD1, 200 μM ATP
- Protocol: The CDK4 enzyme assay for IC50 determination was performed as follows. Microfluidic kinase detection technology (Caliper) was used to monitor the phosphorylation of peptide substrate by CDK4/CyclinD1. […] The plate was then loaded on Caliper EZ Reader (EZ Reader II, PerkinElmer, HD-4HYSG2772), and the reaction mixtures including substrate and product were sipped into the microfluidic chip for separation and detection. […]
pIC50: −log10 of the molar value.

[
  {
    "COMPOUND": "COc1nc(-c2nc(Nc3ccc(N4CCNCCC4=O)cn3)ncc2F)cc2c1nc(C)n2C(C)C",
    "TARGET DESC": "CDK4/CyclinD1 (Homo sapiens, UniProt P11802)",
    "pIC50": "> 8.00"
  },
  {
    "COMPOUND": "CC1(C)COc2c(F)cc(-c3ccnc(Nc4ccc(N5CCNCC5=O)cn4)n3)cc21 [Synthetic Example 59]",
    "TARGET DESC": "CDK4/CyclinD1 (Homo sapiens, UniProt P11802)",
    "pIC50": "> 8.00"
  },
  {
    "COMPOUND": "COc1nc(-c2nc(Nc3ccc(N4CCN(CCF)CC4=O)cn3)ncc2F)cc2c1ncn2C(C)C",
    "TARGET DESC": "CDK4/CyclinD1 (Homo sapiens, UniProt P11802)",
    "pIC50": "> 8.00"
  }
]
